MEASURED_ON: RpsL12 (ribosomal protein S12) (Lysinibacillus sphaericus)
Construct: gene rpsL; isolated ribosomal protein without rRNA; 426 bp gene in pET32a(+), purified from soluble fraction of E. coli BL21
Sequence (B1HMZ3 whole entry): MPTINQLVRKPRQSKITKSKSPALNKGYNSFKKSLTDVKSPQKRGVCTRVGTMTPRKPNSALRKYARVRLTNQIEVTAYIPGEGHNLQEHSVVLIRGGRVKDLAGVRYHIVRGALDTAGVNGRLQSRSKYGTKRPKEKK
ASSAY_NAME: biochemical
Design: surface plasmon resonance, binding kinetics and equilibrium dissociation constant of aminoglycosides to RpsL12
SETUP_CONDITIONS: read-out: Kd
MEASURED_PARAMETER: koff (s⁻¹)

>>> recorded_value("CN[C@@H]1[C@H](O[C@H]2[C@H](O[C@H]3[C@H](O)[C@@H](O)[C@H](N=C(N)N)[C@@H](O)[C@@H]3N=C(N)N)O[C@@H](C)[C@]2(O)C=O)O[C@@H](CO)[C@H](O)[C@H]1O")
0.000307
>>> recorded_value("NC[C@@H]1O[C@H](O[C@H]2[C@@H](O)[C@H](O[C@@H]3[C@@H](O)[C@H](N)C[C@H](N)[C@H]3O[C@H]3O[C@H](CO)[C@@H](O)[C@H](O)[C@H]3N)O[C@@H]2CO)[C@H](N)[C@@H](O)[C@@H]1O")
0.0174
